Test system: Plasmodium falciparum
Test: GSK_TCMDC: Inhibition of Plasmodium falciparum Dd2 in whole red blood cells, using parasite LDH activity as an index of growth. Test compounds present at 2uM
Type: functional
quantity_name: Inhibition

Exercise: Give the measured Inhibition of "COc1ccc(O)c(C(=O)c2cc(C(=O)NC3CCCCC3)c(=O)n(C3CCCCC3)c2)c1" .
Solution: 62%

Exercise: Give the measured Inhibition of "CC(C)c1ccc2c(c1)c(SC(C)(C)C)c(CC(C)(C)C#N)n2Cc1ccc(Cl)cc1" .
Solution: 95%

Exercise: Give the measured Inhibition of "CNCCNCc1cccc(-c2cccc(-c3nc4cc(C(F)(F)F)ccc4[nH]3)c2)c1.O=C(O)C(F)(F)F" .
Solution: 97%

Exercise: Give the measured Inhibition of "CCc1c(C)c2ccc3c(c2oc1=O)CN(CCc1ccc(F)cc1)CO3" .
Solution: 85%

Exercise: Give the measured Inhibition of "Fc1ccc(OC2CN(c3nccc(NCc4ccccc4Cl)n3)C2)cc1" .
Solution: 99%

Exercise: Give the measured Inhibition of "CCOc1c(Br)cc(Cl)cc1CNCCCNc1nc2ccccc2[nH]1.Cl" .
Solution: 3%

Exercise: Give the measured Inhibition of "Cc1cccc2nc(-c3ccc(-c4cccc(CNCCCNS(C)(=O)=O)c4)cc3)[nH]c12.O=C(O)C(F)(F)F" .
Solution: 5%

Exercise: Give the measured Inhibition of "Cc1ccc2[nH]c(-c3ccc(C=CC(=O)NC4CCN(Cc5ccccc5)CC4)cc3)nc2c1" .
Solution: 92%

Exercise: Give the measured Inhibition of "O=C(Cn1c(CCc2cccc(F)c2F)cc(=O)c2cccnc21)N(CCCn1ccnc1)Cc1ccc(-c2ccc(C(F)(F)F)cc2)cc1" .
Solution: 47%

Exercise: Give the measured Inhibition of "Cc1cccc2nc(-c3ccc(-c4ccc(C(=O)NCCN5CCCC5)cc4)cc3)[nH]c12" .
Solution: 77%

Exercise: Give the measured Inhibition of N#Cc1ccc(CN2CCC(Oc3ccc(NC(=O)c4cccs4)cc3)C2)cc1.O=C(O)C(F)(F)F (configuration not stated) .
Solution: 65%

Exercise: Give the measured Inhibition of "Cc1cc(=O)[nH]c(-n2nc(C)cc2NC(=O)C(c2ccccc2)c2ccccc2)n1" .
Solution: 77%

Exercise: Give the measured Inhibition of "CC(Cl)=CCc1c(C)nc2c(ccc3ccccc32)c1O" .
Solution: 96%

Exercise: Give the measured Inhibition of "COc1ccc2ncn(-c3ccc(C(N)=O)c(OCc4ccccc4C(F)(F)F)c3)c2c1" .
Solution: 100%

Exercise: Give the measured Inhibition of "Cc1cc(C)n(-c2nc(Nc3cccc(C(F)(F)F)c3)nc(-n3nc(C)cc3C)n2)n1" .
Solution: 88%

Exercise: Give the measured Inhibition of "CCOC(=O)Nc1cc(-c2csc(N=C(N)N)n2)cc([N+](=O)[O-])c1" .
Solution: 88%

Exercise: Give the measured Inhibition of "Clc1ccccc1C=NN=c1cc[nH]c2ccccc12" .
Solution: 50%

Exercise: Give the measured Inhibition of Cc1cccc2nc(-c3cccc(-c4cccc(NC(=O)C(C)CN(C)C)c4)c3)[nH]c12 (configuration not stated) .
Solution: 97%

Exercise: Give the measured Inhibition of O=C1c2cc(I)ccc2SC1c1ccccc1 (configuration not stated) .
Solution: 98%

Exercise: Give the measured Inhibition of "Cc1nnc(Sc2ncnc3scc(-c4ccc(F)cc4)c23)s1" .
Solution: 50%

Exercise: Give the measured Inhibition of "CC1(C)N=C(N)N=C(N)N1c1ccc(Oc2ccccc2)cc1.Cl" .
Solution: 3%

Exercise: Give the measured Inhibition of "Cc1noc(-c2ccccc2)c1NC(=O)NC1CCN(CCCCCNC(=O)/C=C/c2ccc(Cl)c(Cl)c2)CC1" .
Solution: 0%

Exercise: Give the measured Inhibition of "COc1ccc2nccc(N3CCN(CCNCc4ccc5c(n4)NC(=O)CO5)CC3)c2c1.Cl" .
Solution: 5%

Exercise: Give the measured Inhibition of "Cc1ccc(S(=O)(=O)N2CCN(C(=O)c3cc(-c4ccccc4)n[nH]3)CC2)cc1" .
Solution: 88%

Exercise: Give the measured Inhibition of "C[C@@H](Oc1cc(-n2cnc3ccc(NC(=O)NC(C)(C)C)cc32)sc1C(N)=O)c1ccccc1Cl" .
Solution: 97%

Exercise: Give the measured Inhibition of CC(C)c1ccc(CN2CCC(CNC(=O)c3cc(-c4cccc(C(F)(F)F)c4)cs3)C2)cc1.O=C(O)C(F)(F)F (configuration not stated) .
Solution: 60%

Exercise: Give the measured Inhibition of CCOC(=O)CCc1cc(F)c(F)c(OC[C@H](O)CNC(C)(C)C(O)c2ccc3ccccc3c2)c1.Cl (some centres not stated) .
Solution: 92%

Exercise: Give the measured Inhibition of "CC(=O)Nc1ccc(C(=O)Nc2cccc(-c3ccc(-c4nc5cc(F)ccc5[nH]4)s3)c2)cn1" .
Solution: 97%

Exercise: Give the measured Inhibition of COc1cc(NC(=O)N2CCOC(CCN3CCC4(CCc5ccccc54)CC3)(c3ccc(Cl)c(Cl)c3)C2)cc(OC)c1OC (configuration not stated) .
Solution: 67%

Exercise: Give the measured Inhibition of "Cc1cccc2nc(-c3ccc(-c4ccc(NC(=O)Nc5cccc(C#N)c5)cc4)s3)[nH]c12" .
Solution: 100%

Exercise: Give the measured Inhibition of "COc1ccc(CN(C)CCCOc2ccc(NC(=O)C=Cc3ccc(C(C)(C)C)cc3)cc2)cc1OC" .
Solution: 87%

Exercise: Give the measured Inhibition of "CCN(CC)/C(=N/C(=N)Nc1ccc(Cl)c(Cl)c1)NCCCCCCN/C(=N\C(=N)Nc1ccc(Cl)c(Cl)c1)N(CC)CC" .
Solution: 90%

Exercise: Give the measured Inhibition of "COc1ccc(C)c(Nc2ccnc(Nc3cccc(-c4nc5ccccc5[nH]4)c3)n2)c1.Cl" .
Solution: 35%

Exercise: Give the measured Inhibition of "COc1ccc(Cl)cc1NC(=O)CN(C)C(=O)c1cnn(-c2ccccc2)n1" .
Solution: 99%

Exercise: Give the measured Inhibition of "O=c1cnc2ccc(F)cc2n1CCN1CCC(NCc2cc(-c3ccccc3)cs2)CC1" .
Solution: 14%

Exercise: Give the measured Inhibition of Cc1cccc(-c2ccc(CNC3CCN(CC4Cn5c(=O)ccc6ccc(F)c4c65)CC3)cn2)c1.O=C(O)C(F)(F)F (configuration not stated) .
Solution: 2%

Exercise: Give the measured Inhibition of "COc1ccc(N2CCN(CCCOc3ccc(NC(=O)c4cc(Cl)cc(Cl)c4)cc3)CC2)c(OC)c1" .
Solution: 41%

The measurements presented in this section are drawn from ChEMBL document CHEMBL1157539.
